// data source = patent US12398154B2

System: pERK in PSN1 cells
Procedure Summary: Inhibition of KRas phosphorylation of ERK (Cisbio HTRF pERK assay)
Conditions Used: Homo sapiens, PSN1, 3 h, read-out: Inhibition (HTRF IC50) of KRas-mediated Phosphorylation of ERK, PSN1
Value Type: pIC50
On this scale, pIC50 is minus log10 of a concentration expressed in M (mol/L).

CCc1c(F)ccc2cc(O)cc(-c3ncc4c(N5CCC[C@@](C)(O)C5)nc(OC[C@@]56CCCN5[C@@H](COC(=O)N(C)C)CC6)nc4c3F)c12    5.55

Task: I have this molecule here, CC1(O)COCCN(c2nc(OC[C@@]34CCCN3C[C@H](F)C4)nc3c(F)c(-c4cc(O)cc5ccc(F)c(Cl)c45)ncc23)C1 (stereo partly drawn) , and I need its recorded pIC50.
Output: 5.46

Task: Same thing, different molecule: C#Cc1c(F)ccc2cc(O)cc(-c3ncc4c(N5CCOC[C@@](C)(O)C5)nc(OC[C@@]56CCCN5C[C@H](F)C6)nc4c3F)c12
Output: 5.62
